Ref: patent US20250129078A1

Structures can show the parent of a compound that is named as a salt.
The listing below reports IC50 for compounds tested on EGFR WT (Homo sapiens (Human), UniProt P00533).
Sequence (P00533 25-1210): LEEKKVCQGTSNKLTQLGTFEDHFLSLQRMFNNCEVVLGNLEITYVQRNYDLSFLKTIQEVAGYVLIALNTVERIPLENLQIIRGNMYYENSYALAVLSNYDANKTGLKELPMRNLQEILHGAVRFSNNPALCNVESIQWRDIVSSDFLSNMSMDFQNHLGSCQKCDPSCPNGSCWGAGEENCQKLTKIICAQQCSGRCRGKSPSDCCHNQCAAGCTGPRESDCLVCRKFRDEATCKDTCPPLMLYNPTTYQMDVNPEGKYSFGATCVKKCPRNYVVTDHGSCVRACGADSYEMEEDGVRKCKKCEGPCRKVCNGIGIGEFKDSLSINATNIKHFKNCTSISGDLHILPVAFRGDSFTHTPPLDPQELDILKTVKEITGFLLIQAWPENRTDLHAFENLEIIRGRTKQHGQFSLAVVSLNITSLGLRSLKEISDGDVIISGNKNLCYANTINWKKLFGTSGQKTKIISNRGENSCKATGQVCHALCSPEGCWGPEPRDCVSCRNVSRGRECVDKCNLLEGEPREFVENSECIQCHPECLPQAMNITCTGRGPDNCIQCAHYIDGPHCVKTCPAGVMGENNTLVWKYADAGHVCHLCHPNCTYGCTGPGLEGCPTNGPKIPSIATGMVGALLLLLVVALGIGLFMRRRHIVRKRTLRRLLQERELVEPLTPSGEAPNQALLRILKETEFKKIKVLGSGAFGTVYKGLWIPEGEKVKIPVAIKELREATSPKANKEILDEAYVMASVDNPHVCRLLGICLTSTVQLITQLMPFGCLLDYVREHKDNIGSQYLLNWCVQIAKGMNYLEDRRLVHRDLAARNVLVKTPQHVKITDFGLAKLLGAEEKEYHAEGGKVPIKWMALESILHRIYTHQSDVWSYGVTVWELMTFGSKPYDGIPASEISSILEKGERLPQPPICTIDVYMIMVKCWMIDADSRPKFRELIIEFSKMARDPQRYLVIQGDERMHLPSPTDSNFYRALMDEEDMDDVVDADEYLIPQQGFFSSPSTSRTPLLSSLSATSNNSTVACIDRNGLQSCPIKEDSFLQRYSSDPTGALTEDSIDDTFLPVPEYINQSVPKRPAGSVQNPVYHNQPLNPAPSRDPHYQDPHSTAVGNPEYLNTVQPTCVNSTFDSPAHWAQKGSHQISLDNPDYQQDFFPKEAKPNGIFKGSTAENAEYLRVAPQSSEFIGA

Exam item: Which IC50 is reported with EGFR WT (Homo sapiens (Human), UniProt P00533) for this entry: C=CC(=O)N[C@H]1C[C@H](C)CN(c2ncc3ncnc(Nc4ccc(Oc5ccc6c(c5)nnn6C)c(C)c4F)c3n2)C1 (single isomer, unassigned) [Compound 202] ?
Marked response: 500 to 1000 nM

Exam item: Checklist item: IC50 tested on EGFR WT (Homo sapiens (Human), UniProt P00533), entry C=CC(=O)N[C@H]1CN(c2ccc3ncnc(Nc4ccc(Oc5ccc6c(c5)nnn6C)c(C)c4F)c3n2)CC[C@H]1C [Compound 341] , value?
Marked response: ≥ 1000 nM

Exam item: Record C=CC(=O)N1CCN(c2ncc3ncnc(Nc4ccc(Oc5ccc6c(c5)nnn6C)cc4F)c3n2)CC1 [Compound 22] : what is its IC50 with EGFR WT (Homo sapiens (Human), UniProt P00533)?
Marked response: 100 to 500 nM

Exam item: Test system EGFR WT (Homo sapiens (Human), UniProt P00533); read-out IC50; what value for C=CC(=O)N1CCN(c2ncc3ncnc(Nc4ccc(Oc5cc(F)c6c(c5)ncn6C)c(C)c4)c3n2)C[C@H]1CC [Compound 163] ?
Marked response: 100 to 500 nM

Exam item: Request body: readout IC50, system EGFR WT (Homo sapiens (Human), UniProt P00533), query C=CC(=O)N1C2C=C(c3ccc4ncnc(Nc5ccc(Oc6ccc7c(c6)nnn7C)c(C)c5)c4n3)CC1CCC2 (stereo not shown) [Compound 405] . Return the value.
Marked response: 500 to 1000 nM

Exam item: Entry C=CC(=O)N1C2C=C(c3ccc4ncnc(Nc5cc(C)c(Oc6ccc7c(c6)nnn7C)cc5OC)c4n3)CC1CCC2 (stereo not shown) [Compound 413, trifluoroacetate] , system EGFR WT (Homo sapiens (Human), UniProt P00533): what IC50 was measured?
Marked response: ≥ 1000 nM

====

- EXPERIMENTAL SYSTEM: ErbB2 V777L (Homo sapiens (Human), UniProt P04626, V777L)
- Sequence (P04626 23-1255 V777L): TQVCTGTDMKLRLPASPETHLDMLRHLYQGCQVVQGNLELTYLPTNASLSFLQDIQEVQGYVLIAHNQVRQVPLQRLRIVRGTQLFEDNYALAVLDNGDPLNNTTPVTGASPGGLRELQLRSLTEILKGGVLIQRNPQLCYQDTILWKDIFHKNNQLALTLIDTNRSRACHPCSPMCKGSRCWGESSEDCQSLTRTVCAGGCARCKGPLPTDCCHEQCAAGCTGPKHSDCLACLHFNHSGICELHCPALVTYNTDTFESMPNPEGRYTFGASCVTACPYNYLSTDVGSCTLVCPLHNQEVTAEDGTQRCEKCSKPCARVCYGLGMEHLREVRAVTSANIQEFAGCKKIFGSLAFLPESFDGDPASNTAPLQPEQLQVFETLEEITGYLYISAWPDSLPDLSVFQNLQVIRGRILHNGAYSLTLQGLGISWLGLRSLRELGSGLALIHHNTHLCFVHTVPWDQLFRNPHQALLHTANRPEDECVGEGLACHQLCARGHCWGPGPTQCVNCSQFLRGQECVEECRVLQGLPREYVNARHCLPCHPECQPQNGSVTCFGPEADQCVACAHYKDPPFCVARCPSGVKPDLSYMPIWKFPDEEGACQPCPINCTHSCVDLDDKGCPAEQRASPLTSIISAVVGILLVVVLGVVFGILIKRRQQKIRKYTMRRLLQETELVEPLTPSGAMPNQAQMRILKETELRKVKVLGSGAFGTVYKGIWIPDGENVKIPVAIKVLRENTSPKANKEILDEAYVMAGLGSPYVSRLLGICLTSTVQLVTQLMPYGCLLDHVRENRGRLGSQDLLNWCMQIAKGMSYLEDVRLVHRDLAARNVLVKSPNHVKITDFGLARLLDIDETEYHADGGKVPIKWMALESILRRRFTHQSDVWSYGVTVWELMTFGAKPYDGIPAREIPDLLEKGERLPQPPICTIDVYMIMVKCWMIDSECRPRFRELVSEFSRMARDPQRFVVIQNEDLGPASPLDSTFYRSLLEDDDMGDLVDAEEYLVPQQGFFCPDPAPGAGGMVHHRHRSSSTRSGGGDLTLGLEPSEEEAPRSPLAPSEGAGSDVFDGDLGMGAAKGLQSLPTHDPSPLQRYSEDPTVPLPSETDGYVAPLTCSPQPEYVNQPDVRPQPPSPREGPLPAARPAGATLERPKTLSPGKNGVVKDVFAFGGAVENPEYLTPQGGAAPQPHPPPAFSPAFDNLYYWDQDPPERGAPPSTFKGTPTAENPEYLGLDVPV
- ASSAY: ErbB enzyme assay (CisBio HTRF-KinEASE-TK), ErbB2 V777L
- Assay type: biochemical
OBSERVED PROPERTY: IC50

See these solved cases before continuing.
MOLECULE	OBSERVED PROPERTY	REPORTED
C=CC(=O)N1CCN(c2ccc3ncnc(Nc4c(OC)cc(Oc5ccc6c(c5)nnn6C)c(C)c4F)c3n2)C[C@H]1C [Compound 256]	IC50	100 to 500 nM
C=CC(=O)N1CCN(c2ncc3ncnc(Nc4cc(F)c(Oc5ccc6c(c5)nnn6C)cc4F)c3n2)CC1 [Compound 31]	IC50	100 to 500 nM
C=CC(=O)N1C2CCC1CN(c1ncc3ncnc(Nc4cc(C)c(Oc5ccc6c(c5)ncn6C(F)F)cc4OC)c3n1)C2 [Compound 40, 2,2,2-trifluoroacetate]	IC50	100 to 500 nM
C=CC(=O)N1C[C@@H](N(C)c2ccc3ncnc(Nc4ccc(Oc5ccc6c(c5)nnn6C)c(C)c4)c3n2)C[C@H]1C [Compound 351]	IC50	100 to 500 nM
C=CC(=O)N1CCCN(c2ncc3ncnc(Nc4ccc(Oc5ccc6c(c5)ncn6C)c(C)c4)c3n2)C[C@H]1C [Compound 143]	IC50	100 to 500 nM
C=CC(=O)N1C2CCC1CC(c1ccc3ncnc(Nc4ccc(Oc5ccc6c(c5)nnn6C)c(C)c4)c3n1)C2 (stereo not shown) [Compound 397]	IC50	100 to 500 nM
C=CC(=O)N1C[C@@H]2C[C@H]1CN(c1ncc3ncnc(Nc4ccc(Oc5cc(F)c6c(c5)ncn6C)c(C)c4F)c3n1)C2 [Compound 175]	IC50	100 to 500 nM
C=CC(=O)N1C2C=C(c3ccc4ncnc(Nc5ccc(Oc6ccc7c(c6)nnn7C)c(C)c5F)c4n3)CC1CCC2 (stereo not shown) [Compound 414]	IC50	500 to 1000 nM

Kindly consider the entry below.
Exam item: Would you kindly share the measured IC50 for C=CC(=O)NC1CC2(C1)CN(c1ncc3ncnc(Nc4ccc(Oc5ccc6c(c5)nnn6C)c(C)c4)c3n1)C2 [Compound 225] ?
Marked response: 100 to 500 nM
